Efficacy, MMP3/MMP9 gelatin assay values, listed per item
# assay_target: rat proMMP9 (rat, UniProt P50282 20-708)
# Sequence (P50282 20-708): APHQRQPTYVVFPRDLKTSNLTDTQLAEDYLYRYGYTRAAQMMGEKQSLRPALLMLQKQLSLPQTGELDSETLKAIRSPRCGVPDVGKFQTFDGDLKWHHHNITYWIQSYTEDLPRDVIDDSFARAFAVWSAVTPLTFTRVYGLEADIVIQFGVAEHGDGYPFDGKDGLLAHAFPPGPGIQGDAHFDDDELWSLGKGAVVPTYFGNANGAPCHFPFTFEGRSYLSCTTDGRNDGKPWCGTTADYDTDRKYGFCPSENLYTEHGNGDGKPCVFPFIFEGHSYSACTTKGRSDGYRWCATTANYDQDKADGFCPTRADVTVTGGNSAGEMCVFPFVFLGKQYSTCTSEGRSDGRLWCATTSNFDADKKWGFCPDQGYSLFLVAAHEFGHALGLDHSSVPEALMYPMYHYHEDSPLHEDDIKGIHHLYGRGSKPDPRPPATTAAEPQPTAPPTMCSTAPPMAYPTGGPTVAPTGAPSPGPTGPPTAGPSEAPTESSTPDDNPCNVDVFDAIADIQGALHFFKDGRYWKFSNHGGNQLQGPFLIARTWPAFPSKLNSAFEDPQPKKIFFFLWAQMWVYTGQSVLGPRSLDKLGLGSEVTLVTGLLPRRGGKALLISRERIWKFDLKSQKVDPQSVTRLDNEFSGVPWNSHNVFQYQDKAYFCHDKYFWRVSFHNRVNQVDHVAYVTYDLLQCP
# procedure_details: cell-based or functional assay

{"columns": ["binder", "Efficacy, MMP3/MMP9 gelatin assay / %"],
 "data": [
  ["F20-VH-GL1-V1-V9/B08-VL-GL6c (antibody, human IgG4 S228P, V domains shown) VH: EVQLVESGGGLVQPGRSLRLSCAASGFTFNDYPMHWVRQAPGKGLEWVSGISSQSGSVGYAESVKGRFTISRDNAKNSLYLQMNSLRAEDTALYYCARDKIYYGSGSYDFYYYYGMDVWGQGTTVTVSS VL: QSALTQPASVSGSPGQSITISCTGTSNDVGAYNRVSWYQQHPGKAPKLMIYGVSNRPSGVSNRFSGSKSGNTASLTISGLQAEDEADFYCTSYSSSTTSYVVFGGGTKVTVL", 100],
  ["F20-VH-GL1-V1-V9-V14/B03-VL-GL1c (antibody, human IgG4 S228P, V domains shown) VH: EVQLVESGGGLVQPGRSLRLSCAASGFTFNDYPMHWVRQAPGKGLEWVSGISSQSGSVGYAESVKGRFTISRDNAKNSLYLQMNSLRAEDTALYYCARDKIYYGSGSYDFYYYYGIDVWGQGTTVTVSS VL: SSELTQDPAVSVALGQTVRITCQGDSLRSYYASWYQQKPGQAPVVVIYGKNNRPSGIPDRFSGSSSGNTVSLTITGAQAEDEADYYCQSRDNIGNHRVVLFGGGTKLTVL", 100],
  ["F20-VH-GL1-V4-V9-V14/B03-VL-GL1c (antibody, human IgG4 S228P, V domains shown) VH: EVQLVESGGGLVQPGRSLRLSCAASGFTFNDYPMHWVRQAPGKGLEWVSGISSRSGSVGYAESVKGRFTISRDNAKNSLYLQMNSLRAEDTALYYCARDKIYYGSGSYDFYYYYGIDVWGQGTTVTVSS VL: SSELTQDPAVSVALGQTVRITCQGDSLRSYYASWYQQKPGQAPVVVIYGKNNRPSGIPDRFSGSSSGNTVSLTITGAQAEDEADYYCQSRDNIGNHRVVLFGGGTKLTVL", 100]
]}
